Test system: Morganella morganii
Assay: microbe, parasite or virus in culture
measure: log10 MIC90 (log10 of the value in µg/mL)
# log10 transformed; quantity=MIC90; unit=µg/mL

Data request: For the compound C[C@@](CCN1Cc2cc(C#CC#C[C@H]3C[C@@H]3[C@@H](O)CO)cn2C1=O)(C(=O)NO)S(C)(=O)=O , what log10 MIC90 is on record?
Data returned: 0.00

Data request: For the compound CN1CC(C#CC#Cc2cc3n(c2)C(=O)N(CC[C@](C)(C(=O)NO)S(C)(=O)=O)C3)C1 , what log10 MIC90 is on record?
Data returned: -0.30

Data request: For the compound C[C@@](CCN1Cc2cc(C#CC#CC3CN(CCF)C3)cn2C1=O)(C(=O)NO)S(C)(=O)=O , what log10 MIC90 is on record?
Data returned: -0.60

Data request: For the compound C[C@@](CCN1Cc2cc(C#CC#C[C@@H]3C[C@@]3(F)CO)cn2C1=O)(C(=O)NO)S(C)(=O)=O , what log10 MIC90 is on record?
Data returned: -0.30

Data request: For the compound C[C@@](CCN1Cc2cc(C#CC#CC3CN(CCO)C3)cn2C1=O)(C(=O)NO)S(C)(=O)=O , what log10 MIC90 is on record?
Data returned: 0.00

Data request: For the compound CN(C)c1cc(NC(=O)CNC(C)(C)C)c(O)c2c1C[C@H]1C[C@H]3[C@H](N(C)C)C(O)=C(C(N)=O)C(=O)[C@@]3(O)C(O)=C1C2=O [TIGECYCLINE] , what log10 MIC90 is on record?
Data returned: 0.90

Data request: For the compound C[C@@H](O)[C@H]1C(=O)N2C(C(=O)O)=C(SCCNC=N)C[C@H]12 [IMIPENEM ANHYDROUS] , what log10 MIC90 is on record?
Data returned: 1.20
